- Protocol Text: Pharmacokinetic analysis following iv administration to dogs
- Type: in vivo
- Condition Summary: dog, in vivo, Vβ
Vd: recorded values
Property Label: Vd (L)

> print(dat)
                                   compound  endpoint.result
1  CC(=O)NCC(=O)NCc1ccccc1 [compound VII, N-Acetyl,N'-benzylglycinamide]               19
2  O=C(O)CNC(=O)OCc1ccccc1 [compound VIII, N-benzyloxycarbonylglycine]              4.5

* * *

- Protocol Text: Pharmacokinetic analysis following iv administration to dogs
- Format: in vivo
- Condition Summary: dog, in vivo
Property Label: metabolised (%)

> print(dat)
                                   compound  endpoint.result
1  NC(=O)CNC(=O)OCc1ccccc1 [IX, N-benzyloxycarbonylglycinamide]               80
